These data points were gathered from ChEMBL document CHEMBL4689842.

- Tested on: HEK-293T
- assay text: Multiplex assay against HEK293T;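 note: share of the cells with healthy nuclei that show this phenotype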
- Assay type: toxicity, cell-based
- study conditions: human, 24 h, 1 µM, compound concentration 1 uM, replicate 1
Decide by Population Tubulin-Different-Phenotype (%): equal to or exceeding 40% means criterion met, less means criterion not met.

For orientation, consider the following solved cases.
O=C(Nc1cccnn1)N1CCC(=Cc2cccc(Oc3ccc(C(F)(F)F)cn3)c2)CC1 = criterion met
CN1CCN(C(=O)C(C)(C)c2ccc(C(=O)Nc3cn4cc(-c5cc(C(C)(C)C)cc(C(C)(C)C)c5)ccc4n3)cc2)CC1 = criterion not met
COc1ccc(S(=O)(=O)N(CCO)c2ccccc2CN(C)C/C=C/c2ccc(Cl)cc2)cc1.O=P(O)(O)O = criterion met

input: Record Cl.O=C(c1ccc(Nc2nccc(-c3cc4ccccc4s3)n2)cc1)N1CCC(N2CCCC2)CC1 ; criterion: Population Tubulin-Different-Phenotype (%) no lower than 40%. Met?
output: criterion met

input: Cc1ccc2nc(NCCN)c3ncc(C)n3c2c1.O=C(O)C(F)(F)F.O=C(O)C(F)(F)F ?
output: criterion not met

input: O=C(Nc1ccc(Cl)cc1)Nc1cccc(-c2cccc(N3CCCC3)n2)c1 ?
output: criterion not met
